tested on: P. falciparum female gametocytes; assay: P. falciparum Dual Gamete Formation Assay (PfDGFA), female readout (Pfs25-positive female gametes); format: cell-based, Plasmodium falciparum NF54; conditions: 2µM, 24h preincubation with gametocytes prior to induction of gametogenesis; replicate R3
property_name: % inhibition female (individual replicates) R3 (%)
Give the number; % is assumed, so skip it.

Q) Give me measured % inhibition female (individual replicates) R3, please, for this compound: NC1CCN(Cc2ccc(-c3ccc(-c4nc5cc(F)ccc5[nH]4)cc3)cc2)C1.O=C(O)C(F)(F)F (stereo not drawn)
A) 5.5

Q) Give me measured % inhibition female (individual replicates) R3, please, for this compound: CC(C)COc1ccc2ccccc2c1CNCCCCCCNCc1c(OCC(C)C)ccc2ccccc12.CS(=O)(=O)O
A) 36.7

Q) Give me measured % inhibition female (individual replicates) R3, please, for this compound: CNCCNCc1cccc(-c2ccc(-c3nc4cc(C(F)(F)F)ccc4[nH]3)s2)c1.O=C(O)C(F)(F)F
A) 8.2

Q) Give me measured % inhibition female (individual replicates) R3, please, for this compound: CN1CCC(N2CCN(Cc3cccc(-c4ccc(-c5nc6cc(F)ccc6[nH]5)cc4)c3)CC2)CC1.O=C(O)C(F)(F)F
A) -3.8

Q) Give me measured % inhibition female (individual replicates) R3, please, for this compound: Nc1ccc2[nH]cc(C3CCN(CCC4CCN(C(=O)/C=C/c5ccc(Cl)c(Cl)c5)CC4)CC3)c2n1
A) 21.4

Q) Give me measured % inhibition female (individual replicates) R3, please, for this compound: CN1CCC(N2CCN(CCOc3cc(NC(=O)/C=C/c4ccccc4Cl)ccc3Br)CC2)CC1.O=C(O)C(=O)O
A) -6.3

Q) Give me measured % inhibition female (individual replicates) R3, please, for this compound: Cc1nc(N)nc(N)c1CCCOc1ccccc1Br
A) 13.3

Q) Give me measured % inhibition female (individual replicates) R3, please, for this compound: CCS(=O)(=O)c1ccc(OC)c(Nc2nccc(-c3c(-c4cccc(NC(=O)c5c(F)cccc5F)c4)nn4ncccc34)n2)c1
A) 13.9

Q) Give me measured % inhibition female (individual replicates) R3, please, for this compound: Cc1cc(N2C(N)=NC(N)=NC2(C)C)ccc1Cl.Cl
A) -1.9

Q) Give me measured % inhibition female (individual replicates) R3, please, for this compound: CN(C)CCCNCc1cn(S(=O)(=O)c2ccccc2Cl)c2ccccc12.Cl
A) 48.5

Q) Give me measured % inhibition female (individual replicates) R3, please, for this compound: Cc1[nH]c(C)c(-c2ccc(Oc3ccc(OC(F)(F)F)cc3)cc2)c(=O)c1Br
A) 15.5

Q) Give me measured % inhibition female (individual replicates) R3, please, for this compound: O=C(NCCCCN1CCC(c2ccc3c(c2OCCN2CCCC2)CCCC3)CC1)c1ccc(-c2ccc(C(F)(F)F)cc2)cc1
A) -7.9

###

system: HepG2 cells; assay: HepG2 cytotoxicity counter-screen; conditions: mean of the HepG2 TOX50 values
property_name: Mean TOX (µM)
Give the number; µM is assumed, so skip it.

Q) Give me measured Mean TOX, please, for this compound: C#C[C@H]1O[C@@H](n2cnc3c(Nc4cc(Br)cc(C(F)(F)F)c4)ncnc32)[C@H](O)[C@@H]1O [TC70]
A) 78.77

Q) Give me measured Mean TOX, please, for this compound: CC(Nc1cc(-c2ccccn2)nc(-c2ccccn2)n1)c1ccccc1 (stereo not drawn) [TCMDC-125420]
A) 6.79

Q) Give me measured Mean TOX, please, for this compound: COc1ccc2nc(-c3cc(-c4ccc(NC(=O)C(C)C)cc4)cnc3N)[nH]c2c1 [TC32]
A) 8.50

Q) Give me measured Mean TOX, please, for this compound: CN(C)CCOc1ccc(NC(=O)NC(C)(C)c2nc(-c3ccc(Cl)c(O)c3)c(-c3ccncc3)[nH]2)cc1.Cl [TCMDC-140744]
A) 21.75

Q) Give me measured Mean TOX, please, for this compound: Br.CC[C@H]1CN2CCc3cc(OC)c(OC)cc3[C@@H]2C[C@@H]1C[C@H]1NCCc2c1cc(OC)c(O)c2I [TC07]
A) 5.89

Q) Give me measured Mean TOX, please, for this compound: COc1cc(-c2nc(C(C)(C)CN)[nH]c2-c2ccncc2)ccc1Br.Cl [TC27]
A) 41.74

Q) Give me measured Mean TOX, please, for this compound: c1ccc2sc(Sc3ncnc4sccc34)nc2c1 [TC45]
A) 75.00

Q) Give me measured Mean TOX, please, for this compound: Cc1ccc(S(=O)(=O)N(CCCNCc2cccc(O)c2)c2ccccc2)cc1 [TC44]
A) 36.97

Q) Give me measured Mean TOX, please, for this compound: CCS(=O)(=O)Nc1ccc2c(c1)/C(=C(/Nc1ccc(CN3CCCCC3)cc1)c1ccccc1)C(=O)N2 [TC81]
A) 8.77

Q) Give me measured Mean TOX, please, for this compound: Cc1cccc(Nc2nc(NCCCCN)nc3cc[nH]c(=O)c23)c1.O=C(O)C(F)(F)F [TC51]
A) 28.66

Q) Give me measured Mean TOX, please, for this compound: CC(CO)(CO)NCc1cc2c3ccccc3c(CNC(C)(CO)CO)cc2c2ccccc12.CS(=O)(=O)O [TC76]
A) 13.04

Q) Give me measured Mean TOX, please, for this compound: FC(F)(F)c1ccc2[nH]c(-c3ccc(-c4cccc(CNCCN5CCNCC5)c4)cc3)nc2c1.O=C(O)C(F)(F)F [TC77]
A) 16.43

Q) Give me measured Mean TOX, please, for this compound: [O-][s+]1c(Cl)c(-c2ccc(Cl)cc2)c2ccc(Cl)cc21 (stereo not drawn) [TC66]
A) 13.92

Q) Give me measured Mean TOX, please, for this compound: O=C(Cc1cccc(O)c1)NCC(Cc1ccc(O)cc1)c1ccccc1 (stereo not drawn) [TC08]
A) 100.00

Q) Give me measured Mean TOX, please, for this compound: Oc1cccc(CNCCCN(Cc2ccccc2)c2ccccc2)c1 [TC30]
A) 13.84

# credit: paper PMC10584170
